System: Cit. freundii GN 99
ASSAY_METHOD_TEXT: Minimum Inhibitory Concentration, agar dilution, Cit. freundii GN 99
Format: cell-based
SETTINGS: Citrobacter freundii, GN99; Cit. freundii GN 99; agar dilution; read-out: Minimum Inhibitory Concentration
Excerpt: […]. | Minimum Inhibitory Concentrations (mcg/ml, agar dilution)
PROPERTY_NAME: MIC
# output: number + unit

Query (compound): Cc1nnc(SCC2=C(C(=O)O)N3C(=O)C(NC(=O)Cc4csc(=N)n4O)C3SC2)o1 (stereo not drawn) [Example 6] ; field requested: MIC
0.78 µg/mL

Query (compound): CC(=O)OCC1=C(C(=O)O)N2C(=O)C(NC(=O)Cc3csc(=N)n3O)C2SC1 (stereo not drawn) [Example 1] ; field requested: MIC
1.56 µg/mL

Query (compound): N=c1scc(CC(=O)NC2C(=O)N3C(C(=O)O)=C(CSc4c[nH]nn4)CSC23)n1O (stereo not drawn) [Example 7] ; field requested: MIC
1.56 µg/mL

====

Assign MIC to each entry below.
System: E. coli T-7
ASSAY_METHOD_TEXT: Minimum Inhibitory Concentration, agar dilution, E. coli T-7
Assay type: cell-based
SETTINGS: Escherichia coli, T7; E. coli T-7; agar dilution; read-out: Minimum Inhibitory Concentration
# output: bare number, implied unit µg/mL

Query (compound): Cc1nnc(SCC2=C(C(=O)O)N3C(=O)C(NC(=O)Cc4csc(=N)n4O)C3SC2)o1 (stereo not shown) [Example 6] ; field requested: MIC
3.13

Query (compound): Cc1nnc(SCC2=C(C(=O)O)N3C(=O)C(NC(=O)Cc4csc(=N)n4O)C3SC2)s1 (stereo not shown) [Example 4] ; field requested: MIC
1.56

Query (compound): CC(=O)OCC1=C(C(=O)O)N2C(=O)C(NC(=O)Cc3csc(=N)n3O)C2SC1 (stereo not shown) [Example 1] ; field requested: MIC
3.13

Query (compound): N=c1scc(CC(=O)NC2C(=O)N3C(C(=O)O)=C(CSc4nnnn4CCO)CSC23)n1O (stereo not shown) [Example 17] ; field requested: MIC
1.56

Query (compound): N=c1scc(CC(=O)NC2C(=O)N3C(C(=O)[O-])=C(C[n+]4ccc(C(N)=O)cc4)CSC23)n1O (stereo not shown) [Example 10] ; field requested: MIC
25

Query (compound): Cc1nsc(SCC2=C(C(=O)O)N3C(=O)C(NC(=O)Cc4csc(=N)n4O)C3SC2)n1 (stereo not shown) [Example 15] ; field requested: MIC
6.25

Query (compound): Cn1nnnc1SCC1=C(C(=O)O)N2C(=O)C(NC(=O)Cc3csc(=N)n3O)C2SC1 (stereo not shown) [Example 5] ; field requested: MIC
1.56

Query (compound): N=c1scc(CC(=O)NC2C(=O)N3C(C(=O)O)=C(CSc4nnc(C(F)(F)F)s4)CSC23)n1O (stereo not shown) [Example 16] ; field requested: MIC
12.5

Query (compound): N=c1scc(CC(=O)NC2C(=O)N3C(C(=O)O)=C(CSc4c[nH]nn4)CSC23)n1O (stereo not shown) [Example 7] ; field requested: MIC
3.13

====

Tested on: E. coli NIHJ
ASSAY_METHOD_TEXT: Minimum Inhibitory Concentration, agar dilution, E. coli NIHJ
Format: cell-based
SETTINGS: Escherichia coli; E. coli NIHJ; agar dilution; read-out: Minimum Inhibitory Concentration
Assign MIC to each entry below.
# output: bare number, implied unit µg/mL

Query (molecule): Cc1nsc(SCC2=C(C(=O)O)N3C(=O)C(NC(=O)Cc4csc(=N)n4O)C3SC2)n1 (stereo not shown) [Example 15] ; field requested: MIC
0.39

Query (molecule): N=c1scc(CC(=O)NC2C(=O)N3C(C(=O)[O-])=C(C[n+]4ccc(C(N)=O)cc4)CSC23)n1O (stereo not shown) [Example 10] ; field requested: MIC
1.56

Query (molecule): N=c1scc(CC(=O)NC2C(=O)N3C(C(=O)O)=C(CSc4nnnn4CCO)CSC23)n1O (stereo not shown) [Example 17] ; field requested: MIC
0.1

Query (molecule): N=c1scc(CC(=O)NC2C(=O)N3C(C(=O)O)=C(CSc4nnc(C(F)(F)F)s4)CSC23)n1O (stereo not shown) [Example 16] ; field requested: MIC
0.78

Query (molecule): O=C(Cc1cccs1)N[C@@H]1C(=O)N2C(C(=O)[O-])=C(C[n+]3ccccc3)CS[C@H]12 [Cephaloridine, reference compound] ; field requested: MIC
6.25

Query (molecule): CC(=O)OCC1=C(C(=O)O)N2C(=O)C(NC(=O)Cc3csc(=N)n3O)C2SC1 (stereo not shown) [Example 1] ; field requested: MIC
0.2

Query (molecule): Cc1nnc(SCC2=C(C(=O)O)N3C(=O)C(NC(=O)Cc4csc(=N)n4O)C3SC2)o1 (stereo not shown) [Example 6] ; field requested: MIC
0.1

Query (molecule): Cc1nnc(SCC2=C(C(=O)O)N3C(=O)C(NC(=O)Cc4csc(=N)n4O)C3SC2)s1 (stereo not shown) [Example 4] ; field requested: MIC
0.05

Query (molecule): Cn1nnnc1SCC1=C(C(=O)O)N2C(=O)C(NC(=O)Cc3csc(=N)n3O)C2SC1 (stereo not shown) [Example 5] ; field requested: MIC
0.05

Query (molecule): N=c1scc(CC(=O)NC2C(=O)N3C(C(=O)O)=C(CSc4c[nH]nn4)CSC23)n1O (stereo not shown) [Example 7] ; field requested: MIC
0.78

====

System: Cit. freundii GN 1706
ASSAY_METHOD_TEXT: Minimum Inhibitory Concentration, agar dilution, Cit. freundii GN 1706
Format: cell-based
SETTINGS: Citrobacter freundii, GN1706; Cit. freundii GN 1706; agar dilution; read-out: Minimum Inhibitory Concentration
We label by threshold. Values of MIC strictly beneath 3 µg/mL are condition met. Values of 3 µg/mL and up are condition not met.

Does the reported MIC of the following compound sit strictly below 3 µg/mL? Cc1nsc(SCC2=C(C(=O)O)N3C(=O)C(NC(=O)Cc4csc(=N)n4O)C3SC2)n1 (stereo not shown)
condition not met

Does the reported MIC of the following compound sit strictly below 3 µg/mL? N=c1scc(CC(=O)NC2C(=O)N3C(C(=O)[O-])=C(C[n+]4ccc(C(N)=O)cc4)CSC23)n1O (stereo not shown)
condition not met

Does the reported MIC of the following compound sit strictly below 3 µg/mL? Cc1nnc(SCC2=C(C(=O)O)N3C(=O)C(NC(=O)Cc4csc(=N)n4O)C3SC2)s1 (stereo not shown)
condition met

Does the reported MIC of the following compound sit strictly below 3 µg/mL? N=c1scc(CC(=O)NC2C(=O)N3C(C(=O)O)=C(CSc4nnc(C(F)(F)F)s4)CSC23)n1O (stereo not shown)
condition not met

Does the reported MIC of the following compound sit strictly below 3 µg/mL? N=c1scc(CC(=O)NC2C(=O)N3C(C(=O)O)=C(CSc4nnnn4CCO)CSC23)n1O (stereo not shown)
condition not met

Does the reported MIC of the following compound sit strictly below 3 µg/mL? O=C(Cc1cccs1)N[C@@H]1C(=O)N2C(C(=O)[O-])=C(C[n+]3ccccc3)CS[C@H]12 [Cephaloridine, reference compound]
condition not met

Does the reported MIC of the following compound sit strictly below 3 µg/mL? N=c1scc(CC(=O)NC2C(=O)N3C(C(=O)O)=C(CSc4c[nH]nn4)CSC23)n1O (stereo not shown)
condition not met

Does the reported MIC of the following compound sit strictly below 3 µg/mL? CC(=O)OCC1=C(C(=O)O)N2C(=O)C(NC(=O)Cc3csc(=N)n3O)C2SC1 (stereo not shown)
condition not met

Does the reported MIC of the following compound sit strictly below 3 µg/mL? Cc1nnc(SCC2=C(C(=O)O)N3C(=O)C(NC(=O)Cc4csc(=N)n4O)C3SC2)o1 (stereo not shown)
condition met

Does the reported MIC of the following compound sit strictly below 3 µg/mL? Cn1nnnc1SCC1=C(C(=O)O)N2C(=O)C(NC(=O)Cc3csc(=N)n3O)C2SC1 (stereo not shown)
condition met

====

Tested on: Escherichia coli O-111
ASSAY_METHOD_TEXT: Comparative protection test on infected mice
Type: in vivo
SETTINGS: O111, sc, 168 h; male ICR/SLC mice infected intraperitoneally with Escherichia coli O-111; single subcutaneous dose immediately after challenge; 7 days observation
Assign log10(ED50) to each entry below.
Annotation: log10 of ED50, mg/kg basis.

Query (molecule): N=c1scc(CC(=O)NC2C(=O)N3C(C(=O)O)=C(CSc4c[nH]nn4)CSC23)n1O (centres unmarked) ; field requested: log10(ED50)
-1.25

Query (molecule): CC(=O)OCC1=C(C(=O)O)N2C(=O)C(NC(=O)Cc3csc(=N)n3O)C2SC1 (centres unmarked) ; field requested: log10(ED50)
-1.12

Query (molecule): Cn1nnnc1SCC1=C(C(=O)O)N2C(=O)C(NC(=O)Cc3csc(=N)n3O)[C@H]2SC1 (some centres unmarked) ; field requested: log10(ED50)
-1.40

Query (molecule): Cc1nnc(SCC2=C(C(=O)O)N3C(=O)C(NC(=O)Cc4csc(=N)n4O)C3SC2)s1 (centres unmarked) ; field requested: log10(ED50)
-1.72

Query (molecule): O=C(Cc1cccs1)N[C@@H]1C(=O)N2C(C(=O)[O-])=C(C[n+]3ccccc3)CS[C@H]12 [Cephaloridine, reference compound] ; field requested: log10(ED50)
0.41

Query (molecule): Cc1nnc(SCC2=C(C(=O)O)N3C(=O)C(NC(=O)Cc4csc(=N)n4O)C3SC2)o1 (centres unmarked) ; field requested: log10(ED50)
-1.15

Query (molecule): N=c1scc(CC(=O)NC2C(=O)N3C(C(=O)[O-])=C(C[n+]4ccc(C(N)=O)cc4)CSC23)n1O (centres unmarked) ; field requested: log10(ED50)
-1.05

Query (molecule): N=c1scc(CC(=O)NC2C(=O)N3C(C(=O)[O-])=C(COC(N)=O)CS[C@H]23)n1O.[Na+] (some centres unmarked) ; field requested: log10(ED50)
-1.08
